molecular target: Human FXI protein (coagulation factor XI) (human, UniProt P03951 19-625); test: cell-based or functional assay
# key: entry, value: aPTT1.5 (concentration prolonging aPTT by 50% relative to PBS), human blood
observation_type: aPTT1.5 (concentration prolonging aPTT by 50% relative to PBS), human blood (µg/mL)

binder	quantitative_result
antibody 3871 (antibody, V domains shown, Humanized from 3807: VH is 3807-VH1 and VL is 3807-VL3) VH: QVQLVQSGAEVKKPGSSVKVSCKASGFNIKDDYMHWVRQAPGQGLEWMGWIDPENGDTEYASKFQGRVTITADESTSTAYMELSSLRSEDTAVYYCLYGNFYYFDYWGQGTTVTVSS VL: EIVLTQSPATLSLSPGERATLSCSASSSINYMHWYQQKPGQAPKRWIYDTSKLASGVPARFSGSGSGTDFTLTISSLEPEDFAVYYCHQRSFSPLTFGQGTKLEIK	0.88
antibody 3875 (antibody, V domains shown, Humanized from 3807: VH is 3807-VH5 and VL is 3807-VL3) VH: QVQLVQSGAEVKKPGSSVKVSCKASGFNIKDDYMHWVRQAPGQGLEWMGWIDPENGDTEYASKFQGRVTITADTSANTAYMELSSLRSEDTAVYYCLYGNFYYFDYWGQGTTVTVSS VL: EIVLTQSPATLSLSPGERATLSCSASSSINYMHWYQQKPGQAPKRWIYDTSKLASGVPARFSGSGSGTDFTLTISSLEPEDFAVYYCHQRSFSPLTFGQGTKLEIK	0.87
antibody 0012 (antibody, V domains shown) VH: QVQLQQSGAEVKKPGASVKVSCKVSGYTLTELSMHWVRQAPGKGLEWMGGFDPEDGETIYAQKFQGRVTMTEDTSTDTAYMELSSLRSEDTAVYYCATDPHRTWWRYFDWLYPRGMDVWGQGTTVTVSS VL: EIVMTQSPGTLSLSPGERATLSCRASQTVGKNYLAWYQQKPGQAPRLLIYGASNRATGIPDRFSGSGSGTDFTLTISRLEPEDFGTYYCQQFRSYPYTFGQGTKVEIK	14.6

Numbers sourced from patent US20230220111A1.
